assay: phase I clinical plasma pharmacokinetics (noncompartmental); Reg 1: 3qw continuous; Reg 3: 3qw 2 weeks on/1 week off; type: in vivo, human; settings: human, plasma, oral, 500 mg, 500 mg Reg.3, Cycle 1 Day 8, n 4, Tlast=8h; read-out: AUClast, Mean (SD)
reported endpoint: AUC(0-t) (ng·h/mL)

• COc1cc2c(cc1OC(C)C)[C@H](c1ccc(Cl)cc1)N(c1ccc(N(C)C[C@H]3CC[C@H](N4CCN(C)C(=O)C4)CC3)cc1)C(=O)C2 = 41800

----------
assay: phase I clinical plasma pharmacokinetics (noncompartmental); Reg 1: 3qw continuous; Reg 3: 3qw 2 weeks on/1 week off; format: in vivo, human; details: human, plasma, oral, 700 mg, 700 mg Reg.3, Cycle 2 Day 1, n 4, Tlast=8h; read-out: AUClast, Mean (SD)
reported endpoint: AUC(0-t) (ng·h/mL)

* COc1cc2c(cc1OC(C)C)[C@H](c1ccc(Cl)cc1)N(c1ccc(N(C)C[C@H]3CC[C@H](N4CCN(C)C(=O)C4)CC3)cc1)C(=O)C2 | 35800

----------
test: phase I clinical plasma pharmacokinetics (noncompartmental); Reg 1: 3qw continuous; Reg 3: 3qw 2 weeks on/1 week off; format: in vivo, human; conditions: human, plasma, oral, 400 mg, 400 mg Reg.1, Cycle 2 Day 1, n 5; read-out: Cmax, Mean (SD)
reported endpoint: Cmax (ng/mL)

- COc1cc2c(cc1OC(C)C)[C@H](c1ccc(Cl)cc1)N(c1ccc(N(C)C[C@H]3CC[C@H](N4CCN(C)C(=O)C4)CC3)cc1)C(=O)C2: 6960

----------
assay: phase I clinical plasma pharmacokinetics (noncompartmental); Reg 1: 3qw continuous; Reg 3: 3qw 2 weeks on/1 week off; type: in vivo, human; details: human, plasma, oral, 10 mg, 10 mg Reg.1, Cycle 2 Day 1, n 3, Tlast=8h; read-out: AUClast, Mean (SD)
reported endpoint: AUC(0-t)

* COc1cc2c(cc1OC(C)C)[C@H](c1ccc(Cl)cc1)N(c1ccc(N(C)C[C@H]3CC[C@H](N4CCN(C)C(=O)C4)CC3)cc1)C(=O)C2 | 855 ng·h/mL

----------
assay: phase I clinical plasma pharmacokinetics (noncompartmental); Reg 1: 3qw continuous; Reg 3: 3qw 2 weeks on/1 week off; assay type: in vivo, human; conditions: human, plasma, oral, 20 mg, 20 mg Reg.1, Cycle 1 Day 8, n 4; read-out: Cmax, Mean (SD)
reported endpoint: Cmax (ng/mL)

- COc1cc2c(cc1OC(C)C)[C@H](c1ccc(Cl)cc1)N(c1ccc(N(C)C[C@H]3CC[C@H](N4CCN(C)C(=O)C4)CC3)cc1)C(=O)C2 [CGM097]: 292

----------
assay: phase I clinical plasma pharmacokinetics (noncompartmental); Reg 1: 3qw continuous; Reg 3: 3qw 2 weeks on/1 week off; assay type: in vivo, human; details: human, plasma, oral, 10 mg, 10 mg Reg.1, Cycle 1 Day 8, n 3, Tlast=8h; read-out: AUClast, Mean (SD)
reported endpoint: AUC(0-t) (ng·h/mL)

* COc1cc2c(cc1OC(C)C)[C@H](c1ccc(Cl)cc1)N(c1ccc(N(C)C[C@H]3CC[C@H](N4CCN(C)C(=O)C4)CC3)cc1)C(=O)C2 [CGM097] | 749

----------
test: phase I clinical plasma pharmacokinetics (noncompartmental); Reg 1: 3qw continuous; Reg 3: 3qw 2 weeks on/1 week off; type: in vivo, human; conditions: human, plasma, oral, 700 mg, 700 mg Reg.3, Cycle 1 Day 8, n 4; read-out: Cmax, Mean (SD)
reported endpoint: Cmax (ng/mL)

- COc1cc2c(cc1OC(C)C)[C@H](c1ccc(Cl)cc1)N(c1ccc(N(C)C[C@H]3CC[C@H](N4CCN(C)C(=O)C4)CC3)cc1)C(=O)C2: 9570

Origin of measurements: paper PMC8405607
